# maps each entry to its CC50 at 3 days
# experiment: in vitro
# Assay type: cell-based
# condition parameters: human, HepG2 or HepG2.117 cells, 3-days incubation (unmarked values), ATPlite; mean value

# compound, result operator, CC50 at 3 days [µM]
data = [
    ("COc1ccc(CNc2nc3c(c(=O)n2-c2ccccc2F)CCN(C(=O)c2ccc(Cl)c(Cl)c2)C3)cc1", ">", 50),
    ("COc1ccccc1-n1c(N[C@H](C)CO)nc2c(c1=O)CCN(C(=O)c1ccc(Cl)c(Cl)c1)C2 (single isomer, unassigned) [Compound C62A]", ">", 50),
    ("CC(C)Nc1nc2c(c(=O)n1-c1ccc(N3CC[C@H](O)C3)cc1)C[C@@H](C)N(C(=O)c1ccc(Cl)c(Cl)c1)C2", "=", 35.4),
    ("CC(C)Nc1nc2c(c(=O)n1-c1ccc(-c3ccco3)cc1)CCN(C(=O)c1ccc(Cl)c(Cl)c1)C2", "=", 17),
    ("CC(C)Nc1nc2c(c(=O)n1-c1ccc(C(=O)NC3CC3)cc1)C[C@@H](C)N(C(=O)c1ccc(Cl)c(Cl)c1)C2", ">", 50),
    ("COc1ccc(CNc2nc3c(c(=O)[nH]2)CCN(C(=O)c2ccc(Cl)c(F)c2)C3)cc1", "=", 27.1),
    ("CNC(=O)c1ccc(-n2c(N3CC[C@H]3c3ccccc3)nc3c(c2=O)C[C@@H](C)N(C(=O)c2ccc(Cl)c(Cl)c2)C3)cc1 (single isomer, unassigned)", "=", 31.7),
    ("CNC(=O)c1ccc(-n2c(Nc3ccon3)nc3c(c2=O)C[C@@H](C)N(C(=O)c2ccc(Cl)c(Cl)c2)C3)cc1", ">", 50),
    ("COc1ccc(CNc2nc3c(c(=O)n2-c2ccccc2OC)CCN(C(=O)c2ccc(Cl)c(Cl)c2)C3)cc1", ">", 50),
    ("CNC(=O)c1cc(Cl)c(-n2c(NC(C)C)nc3c(c2=O)C[C@@H](C)N(C(=O)c2ccc(Cl)c(Cl)c2)C3)cc1OC", "=", 24.2),
    ("CNC(=O)c1ccc(-n2c(N[C@H](C)CO)nc3c(c2=O)C[C@@H](C)N(C(=O)c2ccc(Cl)c(Cl)c2)C3)cc1", ">", 50),
    ("CC(C)NC(=O)c1ccc(-n2c(NC(C)C)nc3c(c2=O)C[C@@H](C)N(C(=O)c2ccc(Cl)c(Cl)c2)C3)cc1", ">", 50),
    ("CNC(=O)c1ccc(-n2c(NCc3c[nH]c4ccccc34)nc3c(c2=O)C[C@@H](C)N(C(=O)c2ccc(Cl)c(Cl)c2)C3)cc1", "=", 40.1),
]

###

# experiment: in vitro
# Format: cell-based
# condition parameters: human, HepG2 or HepG2.117 cells, ATPlite, 3-days incubation (not marked with *), mean value

# compound structure, CC50 at 3 days
data = [
    ("CNC(=O)c1ccc(-n2c(NC(C)C)nc3c(c2=O)C[C@@H](C)N(C(=O)c2ccc4c(c2)C=CS4(=O)=O)C3)cc1", "> 50 µM"),
    ("CC(C)Nc1nc2c(c(=O)n1-c1ccc(C(=O)NC3CC3)cc1)C[C@@H](C)N(C(=O)c1ccc(Cl)c(C(F)F)c1)C2", "> 50 µM"),
    ("CNC(=O)c1ccc(-n2c(NC(C)C)nc3c(c2=O)C[C@@H](C)N(C(=O)c2ccc(F)c(Cl)c2)C3)cc1", "> 50 µM"),
    ("CNC(=O)c1ccc(-n2c(N[C@@H](C)C(C)C)nc3c(c2=O)C[C@@H](C)N(C(=O)c2ccc(Cl)c(Cl)c2)C3)cc1", "26.5 µM"),
    ("CC(C)Nc1nc2c(c(=O)n1-c1ccc(C(=O)N3CCOCC3)cc1)C[C@@H](C)N(C(=O)c1ccc(Cl)c(C(F)F)c1)C2", "> 50 µM"),
    ("CNC(=O)c1ccc(-n2c(NCc3ncnn3-c3ccccc3)nc3c(c2=O)C[C@@H](C)N(C(=O)c2ccc(Cl)c(Cl)c2)C3)cc1", "> 50 µM"),
]
